Below, each entry is listed alongside its reported pIC50.
# tested target: neurokinin-1 (NK-1) receptor (Homo sapiens)
# Construct: endogenously expresses the neurokinin-1 (NK-1) receptor; endogenous in cells
# Sequence (P25103 whole entry): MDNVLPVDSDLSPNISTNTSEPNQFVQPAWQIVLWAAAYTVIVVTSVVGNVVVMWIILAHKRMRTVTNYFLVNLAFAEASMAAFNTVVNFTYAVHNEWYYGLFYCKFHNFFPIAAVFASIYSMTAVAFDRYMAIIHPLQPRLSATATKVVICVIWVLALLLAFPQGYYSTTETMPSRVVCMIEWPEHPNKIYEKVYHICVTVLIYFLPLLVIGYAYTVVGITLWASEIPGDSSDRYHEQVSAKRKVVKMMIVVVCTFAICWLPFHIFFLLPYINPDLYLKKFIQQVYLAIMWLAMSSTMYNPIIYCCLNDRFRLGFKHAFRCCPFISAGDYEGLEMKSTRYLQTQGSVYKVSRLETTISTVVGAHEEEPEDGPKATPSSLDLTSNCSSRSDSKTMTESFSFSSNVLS
# test details: NK-1 Binding assay ([125I] Substance P competition, U373 cell membranes)
# measurement setup: Bolton Hunter labeled [125I] Substance P, 30 min at 20° C.
pIC50: −log10 of the molar value.

Guide cases for pIC50, answers given:
| compound | tested target | value kind | endpoint result |
| --- | --- | --- | --- |
| COc1ccccc1C(O)(CCN)COCc1cc(C(F)(F)F)cc(C(F)(F)F)c1 (stereo not shown) | neurokinin-1 (NK-1) receptor (Homo sapiens) | pIC50 | 7.00 to 9.00 |
| NCCC(O)(COCc1cccc(C(F)(F)F)c1)c1ccccc1 (stereo not shown) | neurokinin-1 (NK-1) receptor (Homo sapiens) | pIC50 | 6.52 to 7.00 |
| NCCC(O)(COCc1ccccc1Cl)c1ccccc1 (stereo not shown) | neurokinin-1 (NK-1) receptor (Homo sapiens) | pIC50 | < 6.52 |
| CNCCC(COCc1cc(C(F)(F)F)cc(C(F)(F)F)c1)c1ccccc1 (stereo not shown) | neurokinin-1 (NK-1) receptor (Homo sapiens) | pIC50 | 7.00 to 9.00 |
| Cc1ccc(C(O)(CCN)COCc2cc(C(F)(F)F)cc(C(F)(F)F)c2)cc1 (stereo not shown) | neurokinin-1 (NK-1) receptor (Homo sapiens) | pIC50 | 7.00 to 9.00 |
| Cc1cccc(C(O)(CCN)COCc2cc(C(F)(F)F)cc(C(F)(F)F)c2)c1C (stereo not shown) | neurokinin-1 (NK-1) receptor (Homo sapiens) | pIC50 | 7.00 to 9.00 |

*Q* Can you share its pIC50? I mean this compound: NCCC(O)(COCc1cc(C(F)(F)F)cc(C(F)(F)F)c1)c1cc(F)cc(F)c1 (stereo not shown)
*A* 7.00 to 9.00

*Q* Can you share its pIC50? I mean this compound: NCCC(O)(COCc1ccc(Br)cc1)c1ccccc1 (stereo not shown)
*A* < 6.52

*Q* Can you share its pIC50? I mean this compound: NCCC(O)(COCc1cc(C(F)(F)F)cc(C(F)(F)F)c1)c1ccc(F)cc1 (stereo not shown)
*A* 7.00 to 9.00
